# STUDY_TARGET: recombinant human Flag-tagged PARP7 (amino acids 456-657) (Homo sapiens, UniProt Q7Z3E1)
# Construct: recombinant human Flag-tagged PARP7 (amino acids 456-657)
# Sequence (Q7Z3E1 456-657): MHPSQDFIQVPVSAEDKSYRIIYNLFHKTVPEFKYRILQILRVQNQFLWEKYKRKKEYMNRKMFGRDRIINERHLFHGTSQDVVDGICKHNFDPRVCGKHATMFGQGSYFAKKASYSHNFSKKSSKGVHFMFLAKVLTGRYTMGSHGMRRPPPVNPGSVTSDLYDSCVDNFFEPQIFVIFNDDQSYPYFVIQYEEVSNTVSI
# ASSAY_DETAILS: PARP7 biochemical DELFIA assay (auto-MARylation)
# CONDITION_NOTES: DELFIA readout, IC50 class
IC50 listing for selected compounds.
PARAMETER: IC50

COMPOUND | REPORTED
CN(C(=O)COCCc1cccc2c(=O)[nH]ncc12)C1CN(c2ncc(C(F)(F)F)cn2)C1 | 1000 to 10000 nM
CC(COCCC(=O)N1CCN(c2ncccc2Cl)CC1)n1nc(C(F)(F)F)c2c(=O)[nH]ncc21 (stereo not shown) [Compound 355] | ≤ 100 nM
CC(COCCn1nc(C(F)(F)F)c2c(=O)[nH]ncc21)C(=O)N1CCN(c2ncc(C(F)(F)F)cn2)CC1 (stereo not shown) [Compound 201] | ≤ 100 nM
CC(COCCC(=O)N1CCN(c2ccc(C(C)(F)F)cn2)CC1)n1cc(C(F)(F)F)c2c(=O)[nH]ncc21 (single isomer, unassigned) [Compound 484] | ≤ 100 nM

====

pIC50 listing for selected molecules.
# STUDY_TARGET: recombinant human Flag-tagged PARP7 (amino acids 456-657) (Homo sapiens)
# Construct: recombinant human Flag-tagged PARP7 (amino acids 456-657)
# ASSAY_DETAILS: PARP7 biochemical DELFIA assay (auto-MARylation)
# CONDITION_NOTES: DELFIA readout, IC50 class
pIC50: −log10 of the molar value.
PARAMETER: pIC50

MOLECULE | PARAMETER | REPORTED
CCC(OCCCC(=O)N1CCN(c2ncc(C(F)(F)F)cn2)CC1)c1cccc2c(=O)[nH]ncc12 (single isomer, unassigned) [Compound 210] | pIC50 | ≥ 7.00
CC(COCCC(=O)N1CCN(c2ccc(C(F)(F)F)cn2)CC1)n1nc(C(F)(F)F)c2c(=O)[nH]ncc21 (stereo not shown) [Compound 179] | pIC50 | ≥ 7.00
CC(OCCCC(=O)N1CCN(c2ncc(C(F)(F)F)cn2)CC1)c1cc(F)cc2c(=O)[nH]ncc12 (stereo not shown) [Compound 129] | pIC50 | ≥ 7.00
O=C1NCCc2c(OCCOCC(=O)N3CCN(c4ncc(C(F)(F)F)cn4)CC3)cccc21 | pIC50 | 5.00 to 6.00
Cc1nn(C(C)COCCC(=O)N2CCN(c3ccc(C#N)cn3)CC2)c2cn[nH]c(=O)c12 (stereo not shown) [Compound 243] | pIC50 | ≥ 7.00
CC(COCCC(=O)N1CCN(c2ncc(C3COC3)cn2)CC1)n1nc(C(F)(F)F)c2c(=O)[nH]ncc21 (single isomer, unassigned) [Compound 289] | pIC50 | ≥ 7.00
CC1CN(C(=O)CCOCCc2cccc3c(=O)[nH]ncc23)CCN1c1ncc(C(F)(F)F)cn1 (stereo not shown) [Compound 89] | pIC50 | ≥ 7.00

====

# STUDY_TARGET: recombinant human Flag-tagged PARP7 (amino acids 456-657) (Homo sapiens)
# Construct: recombinant human Flag-tagged PARP7 (amino acids 456-657)
# ASSAY_DETAILS: PARP7 biochemical DELFIA assay (auto-MARylation)
# CONDITION_NOTES: DELFIA readout, IC50 class
PARAMETER: IC50

COMPOUND | STUDY_TARGET | REPORTED
CC(COCCC(=O)N1CCN(c2ccc(Cl)cn2)CC1)n1cc(C(F)(F)F)c2c(=O)[nH]ncc21 (single isomer, unassigned) [Compound 375] | recombinant human Flag-tagged PARP7 (amino acids 456-657) (Homo sapiens) | ≤ 100 nM
CC(COCCC(=O)N1CCN(c2cnc(C(F)F)cn2)CC1)n1nc(C(F)(F)F)c2c(=O)[nH]ncc21 (single isomer, unassigned) [Compound 323] | recombinant human Flag-tagged PARP7 (amino acids 456-657) (Homo sapiens) | ≤ 100 nM
CN(C(=O)COCCc1cccc2c(=O)[nH]ncc12)C1CCN(c2ncc(C(F)(F)F)cn2)CC1 | recombinant human Flag-tagged PARP7 (amino acids 456-657) (Homo sapiens) | ≤ 100 nM
CC(COCCC(=O)N1CCN(c2ccc(C3CC3)cn2)CC1)n1nc(C(F)(F)F)c2c(=O)[nH]ncc21 (stereo not shown) [Compound 278] | recombinant human Flag-tagged PARP7 (amino acids 456-657) (Homo sapiens) | ≤ 100 nM
CC(COCCC(=O)N1CCN(c2ccc(C#N)cn2)CC1)c1ccc(Cl)c2c(=O)[nH]ncc12 (single isomer, unassigned) [Compound 416] | recombinant human Flag-tagged PARP7 (amino acids 456-657) (Homo sapiens) | ≤ 100 nM
O=C(c1cccc(Cc2cccc3c(=O)[nH]c(=O)[nH]c23)c1)N1CCN(C(=O)C2CC2)CC1 | recombinant human Flag-tagged PARP7 (amino acids 456-657) (Homo sapiens) | 1000 to 10000 nM
O=C(COCCNc1cccc2c(=O)[nH]cnc12)N1CCN(c2ncc(C(F)(F)F)cn2)CC1 | recombinant human Flag-tagged PARP7 (amino acids 456-657) (Homo sapiens) | 1000 to 10000 nM

====

# STUDY_TARGET: recombinant human Flag-tagged PARP7 (amino acids 456-657) (Homo sapiens)
# Construct: recombinant human Flag-tagged PARP7 (amino acids 456-657)
# ASSAY_DETAILS: PARP7 biochemical DELFIA assay (auto-MARylation)
# CONDITION_NOTES: DELFIA readout, IC50 class
# Method: A suitable assay may be conducted using 10-30 nM PARP7 (amino acids 456-657), 2 μM biotin-NAD assay solution in 20 mM HEPES (pH 7.5), 100 mM NaCl, 2 mM DTT, 0.1% BSA (w/v), 0.02% Tween (v/v) assay buffer. MARylation may take place for 2-3 h at room temperature and may be detected using a dissociation-enhanced lanthanide fluorescence immunoassay (DELFIA) readout. […] Following incubation for 30 min at room temperature, fluorescence was read on either an Envision or Pherastar FS (Ex337 nm, Em620 nm).
pIC50: −log10 of the molar value.

COMPOUND | pIC50
O=C(CCOCCn1ccc2c(=O)[nH]ncc21)N1CCN(c2ncc(C(F)(F)F)cn2)CC1 [Compound 10] | ≥ 7.00
O=C(COCCOc1cccc2c(=O)[nH]cnc12)N1CCN(c2ncc(C(F)(F)F)cn2)CC1 [Compound 15] | 6.00 to 7.00
CC(COCCC(=O)N1CCN(c2nnc(C(F)(F)F)o2)CC1)n1nc(C(F)(F)F)c2c(=O)[nH]ncc21 (single isomer, unassigned) [Compound 473] | 6.00 to 7.00
O=C(CCOCCc1cccc2c(=O)[nH]ncc12)N1CCN(c2ncc(C(F)F)cn2)CC1 [Compound 101] | ≥ 7.00
CC(COCCC(=O)N1CCN(c2ncc(C(C)(C)C)cn2)CC1)n1nc(C(F)(F)F)c2c(=O)[nH]ncc21 (single isomer, unassigned) [Compound 500] | ≥ 7.00
O=C(CCOCCN1CCOc2c1cn[nH]c2=O)N1CCN(c2ncc(C(F)(F)F)cn2)CC1 [Compound 12] | 6.00 to 7.00
CC(CCOCC(=O)N1CCN(c2ccc(C#N)cn2)CC1)n1nc(C(F)(F)F)c2c(=O)[nH]ncc21 (single isomer, unassigned) [Compound 466] | ≥ 7.00
N#Cc1ccc(N2CCN(C(=O)c3ccc(COc4cccc5c(=O)[nH]ncc45)cc3)CC2)nc1 [Compound 41] | 5.00 to 6.00
CC(COCCC(=O)N1CCN(c2ncc(C(F)(F)F)cn2)CC1)n1nc(C(F)(F)F)c2c(=O)[nH]ncc21 (single isomer, unassigned) [Compound 176] | ≥ 7.00
[2H]C(C)(COCCC(=O)N1CCN(c2ncc(C(F)(F)F)cn2)CC1)n1cc(C(F)(F)F)c2c(=O)[nH]ncc21 (single isomer, unassigned) [Compound 476] | ≥ 7.00
CC(CCOCC(=O)N1CCN(c2ncc(C(F)(F)F)cn2)CC1)n1nc(C(F)(F)F)c2c(=O)[nH]ncc21 (single isomer, unassigned) [Compound 327] | ≥ 7.00
O=C(CCOCCc1cccc2c(=O)[nH]ncc12)N1CCN(c2ncc3c(n2)NCCC3)CC1 [Compound 220] | ≥ 7.00
CC(COCCn1nc(C(F)(F)F)c2c(=O)[nH]ncc21)C(=O)N1CCN(c2ncc(C(F)(F)F)cn2)CC1 (stereo not shown) [Compound 202] | ≥ 7.00

====

# STUDY_TARGET: recombinant human Flag-tagged PARP7 (amino acids 456-657) (Homo sapiens, UniProt Q7Z3E1)
# Construct: recombinant human Flag-tagged PARP7 (amino acids 456-657)
# ASSAY_DETAILS: PARP7 biochemical DELFIA assay (auto-MARylation)
# CONDITION_NOTES: DELFIA readout, IC50 class
pIC50: −log10 of the molar value.
pIC50 listing for selected compounds.

COMPOUND | pIC50
CC1(C)CN(C(=O)CCOCCn2cc(C(F)(F)F)c3c(=O)[nH]ncc32)CCN1c1ccc(C(F)(F)F)cn1 [Compound 237] | ≥ 7.00
O=C(CCOCCn1cc(C(F)(F)F)c2c(=O)[nH]ncc21)N1CCN(c2ncc(Cl)cn2)CC1 [Compound 232] | ≥ 7.00
N#Cc1ccc(N2CCN(C(=O)c3cccc(Cn4ccc5c(=O)[nH]ncc54)c3)CC2)nc1 [Compound 9] | 6.00 to 7.00
CC(COCCC(=O)N1CCN(c2cc(F)c(F)cn2)CC1)n1nc(C(F)(F)F)c2c(=O)[nH]ncc21 (single isomer, unassigned) [Compound 418] | ≥ 7.00
O=C(CCOCCn1cc(C(F)(F)F)c2c(=O)[nH]ncc21)N1CCN(c2ncc(C(F)(F)F)o2)CC1 [Compound 384] | ≥ 7.00
CC(COCCC(=O)N1CCN(c2ncc(C3COC3)cn2)CC1)n1nc(C(F)(F)F)c2c(=O)[nH]ncc21 (centres unmarked) [Compound 288] | ≥ 7.00
O=C(CCOCCc1cccc2c(=O)[nH]ncc12)N1CCC(c2cc(C(F)(F)F)[nH]n2)CC1 [Compound 282] | 5.00 to 6.00
O=C(CCOCCc1cccc2c(=O)[nH]ncc12)N1CCN(c2nc3ccccc3[nH]2)CC1 [Compound 213] | ≥ 7.00
CCc1cn(CCOCCC(=O)N2CCN(c3ncc(C(F)(F)F)cn3)CC2)c2cn[nH]c(=O)c12 [Compound 164] | ≥ 7.00
O=C(CCOCCn1nc(C(F)(F)F)c2c(=O)[nH]ncc21)N1CCN(c2nc(C(F)(F)F)cs2)CC1 [Compound 299] | ≥ 7.00
O=C(CCOCCc1cccc2c(=O)[nH]ncc12)N1CCN(c2ccc(C(F)(F)F)cc2)C(=O)C1 [Compound 207] | 6.00 to 7.00
CC(COCCC(=O)N1CCN(c2ncc(C3CC3)cn2)CC1)n1nc(C(F)(F)F)c2c(=O)[nH]ncc21 (single isomer, unassigned) [Compound 281] | ≥ 7.00
N#Cc1ccc(N2CCN(C(=O)c3cccc(CN4CCOc5c4cn[nH]c5=O)c3)CC2)nc1 [Compound 11] | 5.00 to 6.00
O=C(CCOCCc1cccc2c(=O)[nH]ncc12)N1CCN(c2nc3ccc(Cl)cc3o2)CC1 [Compound 205] | ≥ 7.00
